# systemTested: Thromboxane A2 receptor (Homo sapiens, UniProt P21731); also: assay procedure not described here
# Sequence (P21731 whole entry): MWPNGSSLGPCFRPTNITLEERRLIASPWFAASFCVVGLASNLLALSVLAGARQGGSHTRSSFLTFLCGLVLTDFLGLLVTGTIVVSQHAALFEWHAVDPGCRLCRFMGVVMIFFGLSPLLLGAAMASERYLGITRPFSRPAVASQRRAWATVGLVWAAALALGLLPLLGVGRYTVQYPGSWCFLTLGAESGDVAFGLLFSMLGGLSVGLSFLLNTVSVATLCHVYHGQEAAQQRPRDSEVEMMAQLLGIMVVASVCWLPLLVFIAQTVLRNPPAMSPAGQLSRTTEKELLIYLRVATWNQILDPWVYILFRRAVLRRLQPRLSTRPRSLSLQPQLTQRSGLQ
# Type: functional
parameterMeasured: AC50

Example results:
compound	systemTested	AC50
c1cnc(N2CCN(Cc3ccc4c(c3)OCO4)CC2)nc1 [PIRIBEDIL]	Thromboxane A2 receptor (Homo sapiens, UniProt P21731)	> 30 µM
O=C(OCC(O)CO)c1ccccc1Nc1ccnc2cc(Cl)ccc12 (stereo not given) [GLAFENINE]	Thromboxane A2 receptor (Homo sapiens, UniProt P21731)	> 30 µM
NCC(CC(=O)O)c1ccc(Cl)cc1 (stereo not given) [BACLOFEN]	Thromboxane A2 receptor (Homo sapiens, UniProt P21731)	> 30 µM
c1ccc([C@H]2CN3CCSC3=N2)cc1 [LEVAMISOLE]	Thromboxane A2 receptor (Homo sapiens, UniProt P21731)	> 30 µM
CCOc1ccccc1OCC1CNCCO1 (stereo not given) [VILOXAZINE]	Thromboxane A2 receptor (Homo sapiens, UniProt P21731)	> 30 µM
C[C@@H](O)[C@H]1C(=O)N2C(C(=O)O)=C(S[C@@H]3CN[C@H](C(=O)N(C)C)C3)[C@H](C)[C@H]12 [MEROPENEM]	Thromboxane A2 receptor (Homo sapiens, UniProt P21731)	> 300 µM
CNC1Cc2ccccc2N(C)c2ccccc21 (stereo not given) [METAPRAMINE]	Thromboxane A2 receptor (Homo sapiens, UniProt P21731)	> 30 µM
CC(C)OC(=O)CCC/C=C\C[C@@H]1[C@@H](CC[C@@H](O)CCc2ccccc2)[C@H](O)C[C@@H]1O [LATANOPROST]	Thromboxane A2 receptor (Homo sapiens, UniProt P21731)	> 10 µM
Cc1cn([C@H]2C=C[C@@H](CO)O2)c(=O)[nH]c1=O [STAVUDINE]	Thromboxane A2 receptor (Homo sapiens, UniProt P21731)	> 30 µM

Now look at this entry.
Task: Determine from records and report AC50 for Cn1nnc2c(C(N)=O)ncn2c1=O [TEMOZOLOMIDE]
Output: > 30 µM

----------
# systemTested: Gamma-aminobutyric acid receptor subunit alpha-1 (Rattus norvegicus, UniProt P62813); also: assay procedure not described here
# Sequence (P62813 whole entry): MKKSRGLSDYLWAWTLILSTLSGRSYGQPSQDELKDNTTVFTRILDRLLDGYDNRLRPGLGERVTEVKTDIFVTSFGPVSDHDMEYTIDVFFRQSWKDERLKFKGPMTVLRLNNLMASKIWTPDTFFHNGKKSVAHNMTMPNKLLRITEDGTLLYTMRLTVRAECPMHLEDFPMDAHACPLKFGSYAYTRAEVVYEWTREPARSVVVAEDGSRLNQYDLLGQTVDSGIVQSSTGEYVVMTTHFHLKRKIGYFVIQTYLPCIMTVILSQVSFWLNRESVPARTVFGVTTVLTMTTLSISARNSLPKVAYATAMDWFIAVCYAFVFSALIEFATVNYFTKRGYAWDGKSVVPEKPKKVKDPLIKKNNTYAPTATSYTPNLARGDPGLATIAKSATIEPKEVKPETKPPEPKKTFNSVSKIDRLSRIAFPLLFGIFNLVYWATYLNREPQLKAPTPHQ
# Format: functional
Please go through the items and note down their AC50.

compound	systemTested	AC50
CCN1CCN(C(=O)N[C@@H](C(=O)N[C@@H]2C(=O)N3C(C(=O)O)=C(CSc4nnnn4C)CS[C@H]23)c2ccc(O)cc2)C(=O)C1=O	Gamma-aminobutyric acid receptor subunit alpha-1 (Rattus norvegicus, UniProt P62813)	> 30 µM

Hey, quick one: what's AC50 for each of these?
1. CCCCc1ncc(/C=C(\Cc2cccs2)C(=O)O)n1Cc1ccc(C(=O)O)cc1
2. COc1cc2c(N)nc(N3CCN(C(=O)OCC(C)(C)O)CC3)nc2c(OC)c1OC
3. CN1CCN(C2=Nc3ccccc3Sc3ccc(Cl)cc32)CC1
4. COc1cc2nc(N3CCN(C(=O)c4ccco4)CC3)nc(N)c2cc1OC
5. COC(=O)C1=C(C)NC(C)=C(C(=O)OC(C)(C)CN(C)CCC(c2ccccc2)c2ccccc2)C1c1cccc([N+](=O)[O-])c1 (stereo unspecified)

Output:
1: > 10 µM; 2: > 30 µM; 3: > 30 µM; 4: > 10 µM; 5: > 30 µM

Hey, quick one: what's AC50 for each of these?
1. Cc1c(OCC(F)(F)F)ccnc1C[S+]([O-])c1nc2ccccc2[nH]1 (stereo unspecified)
2. CC[C@H]1OC(=O)[C@H](C)[C@@H](O[C@H]2C[C@@](C)(OC)[C@@H](O)[C@H](C)O2)[C@H](C)[C@@H](O[C@@H]2O[C@H](C)C[C@H](N(C)C)[C@H]2O)[C@](C)(O)C[C@@H](C)CN(C)[C@H](C)[C@@H](O)[C@]1(C)O

Output:
1. > 10 µM
2. > 10 µM

Hey, quick one: what's AC50 for each of these?
1. CCN(CC)C(=O)N[C@H]1C[C@@H]2c3cccc4[nH]cc(c34)C[C@H]2N(C)C1 [TERGURIDE]
2. CC(C[N+](C)(C)C)OC(N)=O (stereo unspecified)
3. CC(C)=CCC/C(C)=C/C=C/C(C)=C/C=C/C(C)=C/C=C/C=C(C)/C=C/C=C(C)/C=C/C=C(\C)CCC=C(C)C
4. COc1ccccc1OCC(O)CN1CCN(CC(=O)Nc2c(C)cccc2C)CC1 (stereo unspecified)
5. CC(CC1c2ccccc2CCc2ccccc21)CN(C)C (stereo unspecified)

Output:
1. > 30 µM
2. > 10 µM
3. > 30 µM
4. > 30 µM
5. > 30 µM
